Test: Quantitative highthroughput screen to assess conditional lethalithy of SEM cells grown in Human Plasma-Like Medium with dialyzed fetal bovine serum (HPLM+ds) (AID 1963882); note: nearly all actives have a fitted effect of over 35% in size
Conditions: SEM B-ALL cells in HPLM+ds, CellTiter-Glo viability, 48 h; series mostly up to 45.8 µM
Inconclusive results are not listed. Activity calls are given as the source filed them. Calls come from the whole dose curve; as a rule, active = well fitted cell-killing curve with a large enough effect; inconclusive = small, poorly fitted or top-dose-only effect, or effect the other way; inactive = no such curve, though single readings can be large or run the other way.
Outcomes: true = active, false = inactive

compound=O=C(Nc1ccc(OC(F)(F)F)cc1)c1sccc1NCc1ccnc2ccccc12 class_label=true
compound=O=C1NCCc2[nH]c(-c3ccncc3)cc21 class_label=true
compound=CC1(C)O[C@H]2CC(=O)OC[C@]23[C@H]2CC[C@@]4(C)[C@H](c5ccoc5)OC(=O)[C@H]5O[C@]54[C@]2(C)C(=O)C[C@@H]13 class_label=false
compound=Nc1ncn([C@H]2C[C@H](O)[C@@H](CO)O2)c(=O)n1 class_label=true
compound=CC(=O)N1CCN(c2ccc(OCc3nn(C)c(C)c3-c3cccc4c(CCCOc5cccc6ccccc56)c(C(=O)O)n(Cc5cccnc5)c34)cc2)CC1 class_label=false
compound=CC1(C)[C@H](C(=O)O)N2C(=O)C[C@H]2S1(=O)=O class_label=false
compound=C[C@@H]1CC=CC=CC=CC=C[C@@H](O[C@@H]2O[C@H](C)[C@@H](O)[C@H](N)[C@H]2O)C[C@@H]2O[C@](O)(C[C@@H](O)C[C@@H]3O[C@@H]3C=CC(=O)O1)C[C@H](O)[C@@H]2C(=O)O class_label=false
compound=O=C(NOC[C@H](O)CO)c1ccc(F)c(F)c1Nc1ccc(I)cc1F class_label=true
compound=CC(C)c1ccc2oc3nc(N)c(C(=O)O)cc3c(=O)c2c1 class_label=false
compound="O=C(O)CCC1CCC(c2cc(F)ccc2F)(S(=O)(=O)c2ccc(Cl)cc2)CC1 (stereo not given)" class_label=false
compound=Cc1cnc(Nc2ccc(CN3CCOCC3)cc2)nc1Nc1cccc(S(=O)(=O)NC(C)(C)C)c1 class_label=true
compound=O=C(Cc1ccc(-c2ccc(OCCN3CCOCC3)cc2)cn1)NCc1ccccc1 class_label=true
compound="O=C1CSC(=O)N1C(CCc1ccncc1)COc1ccc(-c2cccc([N+](=O)[O-])c2)cc1 (stereo not given)" class_label=false
compound=Cc1ccc(C)c(OCCCC(C)(C)C(=O)O)c1 class_label=false
compound=CCN(c1ccccc1)c1cc(NC)[n+](C)c(C)n1 class_label=false
compound=O=C(O)CCCc1c[nH]c2ccccc12 class_label=false
compound=NCCc1ccc(O)c(O)c1 class_label=true
compound=C[C@@]12C(=O)OC(=O)[C@@]1(C)C1CCC2O1 class_label=true
compound="COc1ccc(C2(C#N)CCC(C(=O)O)CC2)cc1OC1CCCC1 (stereo not given)" class_label=false
compound="C=C1CCC2[C@](C)(CO)C(O)CC[C@]2(C)C1CC=C1C(=O)OCC1O (stereo not given in full)" class_label=false

* * *

Assay: Viability qHTS for spleen associated tyrosine kinase inhibitor (SYKi) naive MV4-11 cells (AID 1963823); note: nearly all actives have a fitted effect of over 40% in size
Conditions: MV4-11 AML viability, CellTiter-Glo luminescence, 72 h; series mostly up to 45 µM
Records with an inconclusive call do not appear. Active and inactive are the calls of the source. Calls follow the shape of the dose curve; as a rule, active = well fitted cell-killing curve with a large enough effect; inconclusive = small, poorly fitted or top-dose-only effect, or effect the other way; inactive = no such curve, though single readings can be large or run the other way.
Labels: true for active, false for inactive

compound=CC(C)CCNC(=O)[C@H](CC(C)C)NC(=O)[C@H]1O[C@@H]1C(=O)O class_label=false
compound=Fc1ccc(N2CCCCC2)c(NC(=S)c2ccncc2)c1 class_label=true
compound="CCCCCCCCCCCCCCCCCCOCC(O)CO (centres undefined)" class_label=false
compound=O=C(O)c1ccccn1 class_label=false
compound="CCC(C)C(=O)O[C@@H]1[C@@H](O)[C@@H](O[C@H]2O[C@H](CO)[C@@H](O)[C@H](O)[C@H]2O)O[C@H](CO)[C@H]1O (some centres undefined)" class_label=false
compound=O=C1CCCC(=O)C1C(=O)c1ccc(C(F)(F)F)cc1[N+](=O)[O-] class_label=false
compound="CC1(C)CC[C@]2(C(=O)O)CC[C@]3(C)C(=CCC4[C@@]5(C)CC[C@H](O[C@@H]6O[C@H](CO)[C@@H](O)[C@H](O)[C@H]6O[C@@H]6O[C@H](CO)[C@@H](O)[C@H](O)[C@H]6O)[C@@](C)(CO)C5CC[C@]43C)[C@@H]2C1 (some centres undefined)" class_label=false
compound=Cc1cc2c(N3CCCC3)nc(N3CCCC3)nc2n1C class_label=true
compound=C/C1=C\CC[C@H](C)CCO[C@@H]2O[C@H](CO[C@@H]3OC[C@](O)(COC1=O)[C@H]3O)[C@@H](O)[C@H](O)[C@H]2O class_label=false

* * *

Test: Quantitative highthroughput screen to assess conditional lethalithy of SEM cells grown in RPMI1640 with dialyzed fetal bovine serum (RPMI+ds) (AID 1963884); note: nearly all actives have a fitted effect of over 35% in size;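 for viability: 100% = DMSO control wells and 0% = empty wells without cells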
Settings: SEM B-ALL cells, RPMI+dialyzed FBS, CellTiter-Glo viability, 48 h; series mostly up to 45.8 µM
Records with an inconclusive call do not appear. Activity calls are given as the source filed them. Calls follow the shape of the dose curve; as a rule, active = well fitted cell-killing curve with a large enough effect; inconclusive = small, poorly fitted or top-dose-only effect, or effect the other way; inactive = no such curve, though single readings can be large or run the other way.
Outcome codes: active, inactive

compound=C[C@]12CC[C@@H]3c4ccc(O)cc4CC[C@H]3[C@H]1CC[C@H]2O class_label=active
compound=CC(C)OC(=O)C1=CN(C(=O)c2ccc(F)c(F)c2)CC(C)(C)c2c1[nH]c1ccccc21 class_label=inactive
compound=Cc1ccc(F)c(NC(=O)Nc2ccc(-c3cccc4[nH]nc(N)c34)cc2)c1 class_label=active
compound=O=S(=O)(O)CCS class_label=inactive
compound=CCCCCN(C)CCC(O)(P(=O)(O)O)P(=O)(O)O class_label=inactive
compound="CCC1(C)CC(=O)NC1=O (stereo unspecified)" class_label=inactive
compound=CC(C)Oc1cc(Nc2nc(N[C@@H](C)c3ccc(F)cn3)ncc2Cl)[nH]n1 class_label=active
compound=CC1(C)CCC(C)(C)c2cc(NC(=O)c3ccc(C(=O)O)cc3)ccc21 class_label=inactive
compound=COCCNCCCn1c(C(=O)CF)c(-c2ccc(C)cc2)c2c(N)ncnc21 class_label=active
compound=NC(=O)c1ccc2[nH]ccc2c1 class_label=active
compound=CC[C@H](CC[C@@H](C)[C@H]1CC[C@H]2[C@@H]3CC=C4C[C@@H](O)CC[C@]4(C)[C@@H]3CC[C@]12C)C(C)C class_label=inactive
compound=NC[C@H]1O[C@H](O[C@H]2[C@@H](O)[C@@H](O[C@H]3O[C@H](CO)[C@@H](O)[C@H](N)[C@@H]3O)[C@H](N)C[C@@H]2N)[C@H](N)C[C@H]1O class_label=inactive
compound=O=C1c2c(O)ccc(O)c2C(=O)c2c(NCCNCCO)ccc(NCCNCCO)c21 class_label=active
compound=OC[C@H]1O[C@@H](OCCc2ccc(O)cc2)[C@H](O)[C@@H](O)[C@H]1O class_label=inactive
compound=NC(=O)c1cccc2[nH]c(-c3ccc([C@H]4CCCN4)cc3F)nc12 class_label=active
compound=CC(C)n1cnc2c(NCCc3ccc(O)cc3)nc(-c3csc4ccccc34)nc21 class_label=active
compound=O=C(O)C=Cc1ccc(Cn2ccnc2)cc1 class_label=inactive
compound=O=C(c1ccc(F)cc1)N1CCC[C@H](c2nc(-c3ccc(F)cc3)no2)C1 class_label=inactive
compound=O=C(C=Cc1ccc(CN(CCO)CCc2c[nH]c3ccccc23)cc1)NO class_label=active
compound=CCN1CCN(Cc2ccc(-c3cc4c(N[C@H](C)c5ccccc5)ncnc4[nH]3)cc2)CC1 class_label=active
compound=CCc1nc(C(N)=O)c(Nc2ccc(N3CCC(N4CCN(C)CC4)CC3)c(OC)c2)nc1NC1CCOCC1 class_label=active

* * *

Assay: Viability qHTS for spleen associated tyrosine kinase inhibitor (SYKi) naive MV4-11 cells (AID 1963823); note: nearly all actives have a fitted effect of over 40% in size
Conditions: MV4-11 AML viability, CellTiter-Glo luminescence, 72 h; series mostly up to 45 µM
Inconclusive results are not listed. Activity calls are given as the source filed them. Calls follow the shape of the dose curve; as a rule, active = well fitted cell-killing curve with a large enough effect; inconclusive = small, poorly fitted or top-dose-only effect, or effect the other way; inactive = no such curve, though single readings can be large or run the other way.
Classes used: 1.0 (active), 0.0 (inactive)

compound=CN(C)S(=O)(=O)c1ccc2c(c1)/C(=C/c1cc3c([nH]1)CCCC3)C(=O)N2 class_label=1.0
compound=C[C@H](NC(=O)/C(C#N)=C/c1cccc(Br)n1)c1ccccc1 class_label=1.0
compound="COc1ccc(C2=CC(=O)OC2Cc2ccc(O)cc2)c(O)c1 (stereo not drawn)" class_label=0.0
compound=COc1cc(N2CCC(N)CC2)ccc1Nc1ncc(Cl)c(-c2c[nH]c3ccccc23)n1 class_label=1.0
compound=Fc1ccccc1CNCc1ccc(-c2ccnc3[nH]ccc23)cc1 class_label=1.0
compound=O=C(/C=C/c1ccc(O)cc1)O[C@H]1[C@@H]2C=CO[C@@H](O[C@@H]3O[C@H](CO)[C@@H](O)[C@H](O)[C@H]3O)[C@@H]2[C@@]2(CO)O[C@@H]12 class_label=0.0
compound=c1ccc(-c2ccc(CNc3nc(-c4ccccn4)nnc3-c3ccccc3)cc2)cc1 class_label=1.0
compound=CCN1CCC[C@H]1CNC(=O)c1cc(S(N)(=O)=O)ccc1OC class_label=0.0
compound=COc1ccc(-c2ccc3ncc4c(c3c2)n(-c2ccc(N3CCNCC3)c(C(F)(F)F)c2)c(=O)n4C)cn1 class_label=1.0
compound=O=C(O)c1ccc(-n2nc(-c3ccccc3O)nc2-c2ccccc2O)cc1 class_label=1.0
compound=CC[C@H](C)[C@@H]([C@@H](CC(=O)N1CCC[C@H]1[C@H](OC)[C@@H](C)C(=O)N[C@@H](Cc1ccccc1)c1nccs1)OC)N(C)C(=O)[C@@H](NC(=O)[C@H](C(C)C)N(C)C)C(C)C class_label=0.0
compound=O=C(/C=C/c1ccccc1)OCC1=CC[C@@H]2C(C(=O)O)=CO[C@@H](O[C@@H]3O[C@H](CO)[C@@H](O)[C@H](O)[C@H]3O)[C@H]12 class_label=0.0
compound=COc1ccc(Cl)cc1C(=O)NCCc1ccc(S(=O)(=O)NC(=O)NC2CCCCC2)cc1 class_label=0.0
compound="O=C(O)c1ccc(OC2OC(CO)C(O)C(O)C2O)cc1 (stereo not drawn)" class_label=0.0
compound=C[C@@H]1COCCN1c1cc(=O)n2c(n1)N(Cc1cncc(Cl)c1)[C@H](C(F)(F)F)CC2 class_label=1.0
compound=COC1(c2sc3c(N4CCOCC4)nc(-c4cnc(N)nc4)nc3c2C)COC1 class_label=1.0
compound=c1ccc(CNc2nc(NCc3ccccc3)c3ccccc3n2)cc1 class_label=1.0
compound=CSc1cc2c(s1)c1cnn(Cc3ccccc3F)c(=O)c1n2C class_label=0.0
